# reported EC50; entries follow
molecular target: hTLR8 (Homo sapiens, UniProt Q9NR97); assay: TLR7/TLR8 reporter assay, HEK-Blue hTLR8 reporter cells; settings: 17 hours, optical density at 640 nm
Sequence (Q9NR97 27-1041): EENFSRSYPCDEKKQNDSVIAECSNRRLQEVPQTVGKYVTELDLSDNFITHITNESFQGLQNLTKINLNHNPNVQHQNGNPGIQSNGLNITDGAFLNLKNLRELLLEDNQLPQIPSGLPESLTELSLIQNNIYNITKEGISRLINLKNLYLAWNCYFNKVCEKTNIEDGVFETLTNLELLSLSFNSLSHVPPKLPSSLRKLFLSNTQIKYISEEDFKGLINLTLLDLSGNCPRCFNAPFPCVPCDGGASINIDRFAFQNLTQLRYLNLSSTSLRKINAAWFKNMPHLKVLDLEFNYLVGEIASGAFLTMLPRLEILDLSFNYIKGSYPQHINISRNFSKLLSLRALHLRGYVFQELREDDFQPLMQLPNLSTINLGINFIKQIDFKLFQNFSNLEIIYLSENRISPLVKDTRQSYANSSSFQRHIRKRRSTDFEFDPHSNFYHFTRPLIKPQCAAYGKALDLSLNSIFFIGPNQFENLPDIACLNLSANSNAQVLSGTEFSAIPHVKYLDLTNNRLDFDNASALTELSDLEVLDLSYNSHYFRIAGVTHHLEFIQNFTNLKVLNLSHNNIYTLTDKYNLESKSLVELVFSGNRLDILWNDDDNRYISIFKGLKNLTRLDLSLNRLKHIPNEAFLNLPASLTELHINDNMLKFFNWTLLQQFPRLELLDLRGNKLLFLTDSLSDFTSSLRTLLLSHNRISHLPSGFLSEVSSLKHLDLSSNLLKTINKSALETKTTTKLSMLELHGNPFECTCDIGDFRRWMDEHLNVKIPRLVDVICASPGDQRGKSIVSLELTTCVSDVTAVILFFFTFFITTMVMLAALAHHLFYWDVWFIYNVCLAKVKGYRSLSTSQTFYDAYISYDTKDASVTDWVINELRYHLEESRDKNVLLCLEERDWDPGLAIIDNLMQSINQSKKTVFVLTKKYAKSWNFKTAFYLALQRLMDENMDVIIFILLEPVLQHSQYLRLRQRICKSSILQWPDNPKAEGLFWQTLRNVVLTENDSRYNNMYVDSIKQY
Counter-ions that a name gives are not always drawn.

Query: Look up EC50: CCCN(CCC)C(=O)C1=Cc2ccc(C(=O)Nc3cncc(CNC(=O)[C@@H]4CCCN4C(=O)OCc4ccccc4)c3)cc2N=C(N)C1 [Compound 1.17]
Reply: < 500 nM

New cases:
Query: Look up EC50: CCCN(CCC)C(=O)C1=Cc2ccc(C(=O)Nc3cccc([C@H]4CN(Cc5ccccc5)C[C@@H]4C(=O)OC)c3)cc2N=C(N)C1 [Compound 1.18, trifluoroacetate salt]
Reply: > 1000 nM

Query: Look up EC50: CCCN(CCC)C(=O)C1=Cc2ccc(C(=O)Nc3cncc(CNC(=O)[C@H](Cc4ccccc4)NC(=O)OCc4ccccc4)c3)cc2N=C(N)C1 [Compound 1.16]
Reply: 500 to 1000 nM

Query: Look up EC50: CCCN(CCC)C(=O)C1=Cc2ccc(C(=O)Nc3cncc(CNC(=O)[C@@H](NC(=O)OCc4ccccc4)C(C)C)c3)cc2N=C(N)C1 [Compound 1.15]
Reply: < 500 nM

###

tested on: Human peripheral blood mononuclear cells (PBMC); assay: PBMC screening assay, TNF-α in supernatant; format: cell-based; details: TNF-α in supernatant of human PBMC, 24 hours, ELISA or HTRF
Counter-ions that a name gives are not always drawn.
reported.property: EC50

Recorded EC50, per entry:
Query: Look up EC50: `CCCN(CCC)C(=O)C1=Cc2ccc(C(=O)Nc3cncc(CNC(=O)[C@@H](N)Cc4ccccc4)c3)cc2N=C(N)C1`
Reply: < 500 nM

Query: Look up EC50: CCCN(CCC)C(=O)C1=Cc2ccc(C(=O)Nc3ccc4c(c3)CCNC4)cc2N=C(N)C1 [Compound 1.13, trifluoroacetate salt]
Reply: < 500 nM

Query: Look up EC50: CCCN(CCC)C(=O)C1=Cc2ccc(C(=O)N[C@H]3C[C@@H]3c3ccccc3)cc2N=C(N)C1 [Compound 1.28, trifluoroacetate salt]
Reply: < 500 nM

New cases:
Query: Look up EC50: `CCCN(CCC)C(=O)C1=Cc2ccc(S(=O)(=O)Nc3cccnc3)cc2N=C(N)C1`
Reply: 500 to 1000 nM

Query: Look up EC50: CCCN(CCC)C(=O)C1=Cc2ccc(C(=O)Nc3ccc(N4CCCC(N)C4)nc3)cc2N=C(N)C1 (centres unmarked)
Reply: 1000 to 3000 nM

Query: Look up EC50: CCCN(CCC)C(=O)C1=Cc2ccc(C(=O)NC3CCc4ccccc43)cc2N=C(N)C1 (centres unmarked) [Compound 1.23, trifluoroacetate salt]
Reply: < 500 nM

Query: Look up EC50: `CCCN(CCC)C(=O)C1=Cc2ccc(C(=O)Nc3cccc(C(=O)NCCNC(=O)OCc4ccccc4)c3)cc2N=C(N)C1`
Reply: < 500 nM

###

Test system: Human peripheral blood mononuclear cells (PBMC)
Assay: PBMC screening assay, TNF-α in supernatant
Assay type: cell-based
Settings: TNF-α in supernatant of human PBMC, 24 hours, ELISA or HTRF
Procedure: Human peripheral blood mononuclear cells (PBMC) were obtained from BenTek, frozen at 25×10^6 cell/mL in 10% DMSO (Sigma) prepared in fetal bovine serum (Gibco) and stored in liquid nitrogen. […] PBMC were thawed, suspended at a concentration of 1×10^6 cell/mL in growth media and 200 μL was aliquoted into each well of a 96-well plate for a total of 0.2×10^6 cells per well. […] TNF-α activity was assessed in the supernatant by ELISA (eBioscience) or HTRF (CisBio) per the manufacturer's instructions. […]
pEC50: −log10 of the molar value. Counter-ions that a name gives are not always drawn.
reported.property: pEC50

Query: Look up pEC50: CCCN(CCC)C(=O)C1=Cc2ccc(C(=O)Nc3ccc4c(c3)C(O)CCC4)cc2N=C(N)C1 (stereo not shown) [Compound 1.7, trifluoroacetate salt]
Reply: > 6.30

Query: Look up pEC50: `CCCN(CCC)C(=O)C1=Cc2ccc(C(=O)Nc3cccc(C(C)=O)c3)cc2N=C(N)C1`
Reply: > 6.30

New cases:
Query: Look up pEC50: CCCN(CCC)C(=O)C1=Cc2ccc(C(=O)N3CCc4ccccc4C3)cc2N=C(N)C1 [Compound 1.24, trifluoroacetate salt]
Reply: > 6.30

Query: Look up pEC50: `CCCN(CCC)C(=O)C1=Cc2ccc(C(=O)Nc3cncc(CNC(=O)[C@@H](N)C(C)C)c3)cc2N=C(N)C1`
Reply: 5.52 to 6.00
